Target: C1b domain of human PKCθ (Homo sapiens)
Construct: Genes encoding C1b domains of human PKCα, δ, ε, θ, and PKD1 (PKCμ) were synthesized; made in house; host or cells: E. coli BL21(DE3)
Sequence (Q04759 231-281 limits assumed): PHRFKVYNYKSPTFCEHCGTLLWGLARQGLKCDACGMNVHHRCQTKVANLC
Test: Competitive 3H-PDBu binding to C1b domain of PKCθ
pKi: −log10 of the molar value.
measure: pKi

{"molecule": "CC1=C[C@H]2[C@@]3(O)[C@H](C)C[C@]4(O)[C@H]([C@@H]3C=C(CO)C[C@]2(O)C1=O)C4(C)C [Compound K101-C13OH]", "target-of-assay": "C1b domain of human PKCθ (Homo sapiens)", "pKi": "5.40 to 5.70"}
{"molecule": "CC1=C[C@H]2[C@@]3(O)[C@H](C)C[C@]4(OC(=O)[C@@H](N)CCc5ccccc5)[C@H]([C@@H]3C=C(CO)C[C@]2(O)C1=O)C4(C)C", "target-of-assay": "C1b domain of human PKCθ (Homo sapiens)", "pKi": "7.52 to 9.00"}

Lab note: "CC1=C[C@H]2[C@@]3(O)[C@H](C)C[C@]4(OC(=O)[C@H](N)C(C)(C)c5ccc(C(F)(F)F)cc5)[C@H]([C@@H]3C=C(CO)C[C@]2(O)C1=O)C4(C)C" gave pKi of 7.52 to 9.00

Lab note: "CC1=C[C@H]2[C@@]3(O)[C@H](C)C[C@]4(OC(=O)C(C)(C)C)[C@H]([C@@H]3C=C(CO)C[C@]2(O)C1=O)C4(C)C" gave pKi of 7.22 to 7.52

Lab note: "CC1=C[C@H]2[C@@]3(O)[C@H](C)C[C@]4(OC(=O)[C@@H](N)CCCCCCc5ccccc5)[C@H]([C@@H]3C=C(CO)C[C@]2(O)C1=O)C4(C)C" gave pKi of > 8.30

Lab note: "CC1=C[C@H]2[C@@]3(O)[C@H](C)C[C@]4(OC(=O)[C@@H](N)CCCc5ccccc5)[C@H]([C@@H]3C=C(CO)C[C@]2(O)C1=O)C4(C)C" gave pKi of 8.00 to 8.30

Lab note: "CC1=C[C@H]2[C@@]3(O)[C@H](C)C[C@]4(OC(=O)[C@H](N)CCCCCCc5ccccc5)[C@H]([C@@H]3C=C(CO)C[C@]2(O)C1=O)C4(C)C" gave pKi of 7.52 to 9.00

Lab note: "CC1=C[C@H]2[C@@]3(O)[C@H](C)C[C@]4(OC(=O)[C@@H](N)CCCCCCc5ccc(C(F)(F)F)cc5)[C@H]([C@@H]3C=C(CO)C[C@]2(O)C1=O)C4(C)C" gave pKi of 7.52 to 9.00

* * *

target: C1b domain of human PKCδ (Homo sapiens); construct: Genes encoding C1b domains of human PKCα, δ, ε, θ, and PKD1 (PKCμ) were synthesized; made in house; host or cells: E. coli BL21(DE3); assay: Competitive 3H-PDBu binding to C1b domain of PKCδ; settings: Ki PKCδ, 3H-PDBu competition
Sequence (Q05655 230-280 limits assumed): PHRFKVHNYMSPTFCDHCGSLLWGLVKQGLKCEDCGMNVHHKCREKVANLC
measure: Ki

// solved cases for Ki follow
{"compound": "CC1=C[C@H]2[C@@]3(O)[C@H](C)C[C@]4(OC(=O)[C@H](N)Cc5c[nH]c6ccccc56)[C@H]([C@@H]3C=C(CO)C[C@]2(O)C1=O)C4(C)C", "measure": "Ki", "measured": "30 to 60 nM"}
{"compound": "CC1=C[C@H]2[C@@]3(O)[C@H](C)C[C@]4(OC(=O)CCCCCCCCCCCC(=O)O)[C@H]([C@@H]3C=C(CO)C[C@]2(O)C1=O)C4(C)C", "measure": "Ki", "measured": "200 to 400 nM"}
{"compound": "CC1=C[C@H]2[C@@]3(O)[C@H](C)C[C@]4(OC(=O)[C@@H](N)CCC5CCCCC5)[C@H]([C@@H]3C=C(CO)C[C@]2(O)C1=O)C4(C)C", "measure": "Ki", "measured": "< 5 nM"}
{"compound": "CSC[C@H](N)C(=O)O[C@@]12C[C@@H](C)[C@@]3(O)[C@@H](C=C(CO)C[C@]4(O)C(=O)C(C)=C[C@@H]34)[C@@H]1C2(C)C", "measure": "Ki", "measured": "200 to 400 nM"}
{"compound": "CC1=C[C@H]2[C@@]3(O)[C@H](C)C[C@]4(OC(=O)C[C@@H](N)c5ccccc5)[C@H]([C@@H]3C=C(CO)C[C@]2(O)C1=O)C4(C)C", "measure": "Ki", "measured": "200 to 400 nM"}
{"compound": "CC1=C[C@H]2[C@@]3(O)[C@H](C)C[C@]4(OC(=O)[C@H](CC5CCCCC5)N(C)C)[C@H]([C@@H]3C=C(CO)C[C@]2(O)C1=O)C4(C)C", "measure": "Ki", "measured": "100 to 200 nM"}

Lab note: "CC1=C[C@H]2[C@@]3(O)[C@H](C)C[C@]4(OC(=O)[C@@H](N)CC5CCC5)[C@H]([C@@H]3C=C(CO)C[C@]2(O)C1=O)C4(C)C" gave Ki of 30 to 60 nM

Lab note: "CC1=C[C@H]2[C@@]3(O)[C@H](C)C[C@]4(OC(=O)C[C@H](N)c5ccccc5)[C@H]([C@@H]3C=C(CO)C[C@]2(O)C1=O)C4(C)C" gave Ki of 30 to 60 nM

Lab note: CC1=C[C@H]2[C@@]3(O)[C@H](C)C[C@]4(O)[C@H]([C@@H]3C=C(CO)C[C@]2(O)C1=O)C4(C)C [Compound K101-C13OH] gave Ki of 6000 to 8000 nM

Lab note: "CC1=C[C@H]2[C@@]3(O)[C@H](C)C[C@]4(OC(=O)[C@@H](N)[C@]56C[C@H]7C[C@H](C[C@H](C7)C5)C6)[C@H]([C@@H]3C=C(CO)C[C@]2(O)C1=O)C4(C)C" gave Ki of < 5 nM

Lab note: "CC1=C[C@H]2[C@@]3(O)[C@H](C)C[C@]4(OC(=O)[C@@H](O)Cc5ccccc5)[C@H]([C@@H]3C=C(CO)C[C@]2(O)C1=O)C4(C)C" gave Ki of 30 to 60 nM

* * *

Assay: Pharmacokinetic study, intravenous bolus injection in rats
Assay type: in vivo
Settings: Sprague Dawley, rat plasma, 0.1 mg/kg
Procedure: Pharmacokinetic (PK) studies were conducted for compounds described in this disclosure, and the PK study of K101-C1327 administered by intravenous injection in rats is given as an example. Briefly, K101-C1327 was dissolved in a pH 5 buffer solution at the concentrations of 2.0 mg/mL, and diluted to 0.04 and 0.08 mg/mL to achieve the doses of 0.1 and 0.2 mg/kg with a dosing volume of 2.5 mL/kg, respectively. […] The drug concentrations at each time point were determined by LC-MS. […]
measure: clearance (mL/min/kg)
Quick note: give the figure in mL/min/kg, leave out the unit.

Lab note: "CC1=C[C@H]2[C@@]3(O)[C@H](C)C[C@]4(OC(=O)[C@@H](N)CC5CCCCC5)[C@H]([C@@H]3C=C(CO)C[C@]2(O)C1=O)C4(C)C" gave clearance of 32.9

* * *

test: Pharmacokinetic study, intravenous bolus injection in rats; type: in vivo; conditions: Sprague Dawley, rat plasma, 0.1 mg/kg
measure: AUC(0-t) (ng·h/mL)
Quick note: give the figure in ng·h/mL, leave out the unit.

Lab note: "CC1=C[C@H]2[C@@]3(O)[C@H](C)C[C@]4(OC(=O)[C@@H](N)CC5CCCCC5)[C@H]([C@@H]3C=C(CO)C[C@]2(O)C1=O)C4(C)C" gave AUC(0-t) of 48.3

* * *

test: Pharmacokinetic study, intravenous bolus injection in rats; assay type: in vivo; details: Sprague Dawley, rat plasma, 0.2 mg/kg
measure: AUC(0-t) (ng·h/mL)
Quick note: give the figure in ng·h/mL, leave out the unit.

Lab note: "CC1=C[C@H]2[C@@]3(O)[C@H](C)C[C@]4(OC(=O)[C@@H](N)CC5CCCCC5)[C@H]([C@@H]3C=C(CO)C[C@]2(O)C1=O)C4(C)C" gave AUC(0-t) of 119

* * *

test: Pharmacokinetic study, intravenous bolus injection in rats; assay type: in vivo; conditions: Sprague Dawley, plasma, rat, dose 0.1 mg/kg, 24 hour post dose, read-out: Concentration in Rat Plasma after Bolus Injection, Mean
measure: concentration at 24 hour

Lab note: "CC1=C[C@H]2[C@@]3(O)[C@H](C)C[C@]4(OC(=O)[C@@H](N)CC5CCCCC5)[C@H]([C@@H]3C=C(CO)C[C@]2(O)C1=O)C4(C)C" gave concentration at 24 hour of < 1 ng/mL

* * *

Collected Ki values appear next to each entry.
biological target: C1b domain of human PKD1 (PKCμ) (Homo sapiens); construct: Genes encoding C1b domains of human PKCα, δ, ε, θ, and PKD1 (PKCμ) were synthesized; made in house; host or cells: E. coli BL21(DE3); assay: biochemical; format: binding
Sequence (Q15139 270-320 limits assumed): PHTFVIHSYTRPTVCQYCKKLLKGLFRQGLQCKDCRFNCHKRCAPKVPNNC

// solved cases for Ki follow
{"compound": "CC1=C[C@H]2[C@@]3(O)[C@H](C)C[C@]4(OC(=O)[C@@H](N)CC5CC5)[C@H]([C@@H]3C=C(CO)C[C@]2(O)C1=O)C4(C)C [Compound K101-C1330]", "Ki": "30 to 60 nM"}
{"compound": "CC1=C[C@H]2[C@@]3(O)[C@H](C)C[C@]4(OC(=O)[C@@H](N)[C@]56C[C@H]7C[C@H](C[C@H](C7)C5)C6)[C@H]([C@@H]3C=C(CO)C[C@]2(O)C1=O)C4(C)C [Compound K101-C1347]", "Ki": "< 5 nM"}
{"compound": "CC1=C[C@H]2[C@@]3(O)[C@H](C)C[C@]4(OC(=O)[C@@H](N)CC(C)(C)C)[C@H]([C@@H]3C=C(CO)C[C@]2(O)C1=O)C4(C)C [Compound K101-C1328]", "Ki": "< 5 nM"}
{"compound": "CC1=C[C@H]2[C@@]3(O)[C@H](C)C[C@]4(OC(=O)C[C@@H](N)CCc5ccccc5)[C@H]([C@@H]3C=C(CO)C[C@]2(O)C1=O)C4(C)C [Compound K101-C1350]", "Ki": "< 5 nM"}
{"compound": "CC1=C[C@H]2[C@@]3(O)[C@H](C)C[C@]4(OC(=O)[C@H](N)CCCCCCc5ccc(C(F)F)cc5)[C@H]([C@@H]3C=C(CO)C[C@]2(O)C1=O)C4(C)C [Compound K101-C137001]", "Ki": "1 to 30 nM"}

Lab note: CC1=C[C@H]2[C@@]3(O)[C@H](C)C[C@]4(OC(=O)[C@@H](N)CCCCCCc5ccccc5)[C@H]([C@@H]3C=C(CO)C[C@]2(O)C1=O)C4(C)C [Compound K101-C134802] gave Ki of < 5 nM

Lab note: CC1=C[C@H]2[C@@]3(O)[C@H](C)C[C@]4(OC(=O)CCC5CCCC5)[C@H]([C@@H]3C=C(CO)C[C@]2(O)C1=O)C4(C)C [Compound K101-C1301] gave Ki of < 5 nM

Lab note: CC1=C[C@H]2[C@@]3(O)[C@H](C)C[C@]4(OC(=O)[C@@H](N)CCCCCCCCc5ccccc5)[C@H]([C@@H]3C=C(CO)C[C@]2(O)C1=O)C4(C)C [Compound K101-C136102] gave Ki of < 5 nM

Lab note: CCCCCCCCCCCCCCCCCCC(CC(=O)O[C@@]12C[C@@H](C)[C@@]3(O)[C@@H](C=C(CO)C[C@]4(O)C(=O)C(C)=C[C@@H]34)[C@@H]1C2(C)C)C(=O)O (stereo partly shown) [Compound K101-C1352] gave Ki of 200 to 400 nM

Lab note: CC1=C[C@H]2[C@@]3(O)[C@H](C)C[C@]4(OC(=O)C[C@@H](N)Cc5ccccc5)[C@H]([C@@H]3C=C(CO)C[C@]2(O)C1=O)C4(C)C [Compound K101-C1344] gave Ki of 1 to 30 nM

From: patent US20220411362A1
